Each recorded value in this set is attributed to ChEMBL document CHEMBL2034826.

experiment: Inhibition of IMPDH in mouse L1210 cells assessed as […] after 20 to 60 mins; format: cell-based
Result type: pIC50
Give bare numbers, as −log10 of the molar value.

Q) Which pIC50 value belongs to "NC(=O)c1ncn([C@@H]2O[C@H](CO)[C@@H](O)[C@H]2O)n1" ?
A) 6.00

====

system: HepG2; test: Antiproliferative activity against human HepG2 cells after 72 hrs by MTT assay; format: functional, cell-based; conditions: HepG2, 72 h
Assign labels as follows, please: yes (1) for IC50 below 60 µM; no (0) for IC50 equal to or exceeding 60 µM.

Some solved cases for reference:
COC(=O)c1ncn(CCC2(O)NC(=O)C(OCc3ccccc3)=C2OCc2ccccc2)c1C(=O)OC (stereo not given) | no (0)
COc1cccc2c1C(=O)c1c(O)c3c(c(O)c1C2=O)C[C@@](O)(C(=O)CO)C[C@@H]3O[C@H]1C[C@H](N)[C@H](O)[C@H](C)O1 | yes (1)
COC(=O)c1ncn(C[C@H](O)[C@H]2OC(=O)C(OCc3ccccc3)=C2OCc2ccccc2)n1 | no (0)

Q) Lab log: compare recorded IC50 with 60 µM; is it strictly lower for COC(=O)c1ncn(CC=C2OC(=O)C(OCc3ccccc3)=C2OCc2ccccc2)n1 (mixture of isomers) ?
A) no (0)

Q) Lab log: compare recorded IC50 with 60 µM; is it strictly lower for "O=c1[nH]cc(F)c(=O)[nH]1" ?
A) yes (1)

Q) Lab log: compare recorded IC50 with 60 µM; is it strictly lower for COC(=O)c1ncn(CC=C2OC(=O)C(O)=C2O)n1 (mixture of isomers) ?
A) no (0)

Q) Lab log: compare recorded IC50 with 60 µM; is it strictly lower for NC(=O)c1ncn(CCC2(O)NC(=O)C(OCc3ccccc3)=C2OCc2ccccc2)c1C(N)=O (stereo not given) ?
A) no (0)

Q) Lab log: compare recorded IC50 with 60 µM; is it strictly lower for NC(=O)c1ncn(CCC2(O)NC(=O)C(OCc3ccccc3)=C2OCc2ccccc2)n1 (stereo not given) ?
A) no (0)

Q) Lab log: compare recorded IC50 with 60 µM; is it strictly lower for COC(=O)c1ncn(CC=C2OC(=O)C(OCc3ccccc3)=C2OCc2ccccc2)c1C(=O)OC (mixture of isomers) ?
A) yes (1)

Q) Lab log: compare recorded IC50 with 60 µM; is it strictly lower for N#Cc1ncn(C/C=C2\OC(=O)C(OCc3ccccc3)=C2OCc2ccccc2)c1C#N (mixture of isomers) ?
A) no (0)

====

system: MIA PaCa-2; assay: Antiproliferative activity against human MIAPaCa2 cells after 72 hrs by MTT assay; type: functional, cell-based; details: MIA PaCa-2, 72 h
Result type: pIC50
Numbers only, as −log10 of the molar value.

COC(=O)c1ncn(CC=C2OC(=O)C(OCc3ccccc3)=C2OCc2ccccc2)c1C(=O)OC (mixture of isomers) | 4.48
N#Cc1ncn(C/C=C2\OC(=O)C(OCc3ccccc3)=C2OCc2ccccc2)c1C#N (mixture of isomers) | 4.44
COC(=O)c1ncn(CC=C2OC(=O)C(OCc3ccccc3)=C2OCc2ccccc2)n1 (mixture of isomers) | 4.10

# return pIC50 for each item in the list
1. COC(=O)c1ncn(CCC2(O)NC(=O)C(OCc3ccccc3)=C2OCc2ccccc2)c1C(=O)OC (stereo not given)
2. COc1cccc2c1C(=O)c1c(O)c3c(c(O)c1C2=O)C[C@@](O)(C(=O)CO)C[C@@H]3O[C@H]1C[C@H](N)[C@H](O)[C@H](C)O1
3. O=c1[nH]cc(F)c(=O)[nH]1

A)
1. 4.33
2. 7.52
3. 4.93

====

test system: Hepatitis C virus; assay: Antiviral activity against HCV genotype 1b infected in HuH 5.2 cells expressing 1389luc-ubi-neo/NS3-3' assessed as inhibition of viral replication after 72 hrs by luciferase reporter gene assay; assay type: functional, organism-based, Hepacivirus hominis; conditions: Huh-5-2, 72 h
Result type: EC90

These recorded examples may help you get a feel for the data.
N#Cc1ncn(C/C=C2\OC(=O)C(OCc3ccccc3)=C2OCc2ccccc2)c1C#N (mixture of isomers) | > 100 mg/L
COC(=O)c1ncn(CCC2(O)NC(=O)C(OCc3ccccc3)=C2OCc2ccccc2)c1C(=O)OC (stereo unspecified) | 81.3 mg/L
COC(=O)c1ncn(CC=C2OC(=O)C(OCc3ccccc3)=C2OCc2ccccc2)c1C(=O)OC (mixture of isomers) | 22.7 mg/L
COC(=O)c1ncn(CC=C2OC(=O)C(OCc3ccccc3)=C2OCc2ccccc2)n1 (mixture of isomers) | > 100 mg/L
NC(=O)c1ncn(CCC2(O)NC(=O)C(OCc3ccccc3)=C2OCc2ccccc2)n1 (stereo unspecified) | > 100 mg/L

Now look at this one.
Q) Which EC90 value belongs to NC(=O)c1ncn(CCC2(O)NC(=O)C(OCc3ccccc3)=C2OCc2ccccc2)c1C(N)=O (stereo unspecified) ?
A) > 100 mg/L

====

experiment: Inhibition of IMPDH in human CEM cells assessed as […] after 20 to 60 mins; assay type: cell-based; conditions: CCRF-CEM
Result type: pIC50
Numbers only, as −log10 of the molar value.

Q) Which pIC50 value belongs to "NC(=O)c1ncn([C@@H]2O[C@H](CO)[C@@H](O)[C@H]2O)n1" ?
A) 6.00
